Please go through the items and note down their ELISA signal relative to background.
Biological target: T1, FX activation peptide 12-mer NPFDLLDFNQTQ (human)
T1 peptide: NPFDLLDFNQTQ-biotin
Assay: peptide ELISA
Ends that are not written are not given here.
// no unit string in output, number only

Prompt: Could you tell me which ELISA signal relative to background is on file for Nb 730C03 (VHH, monovalent Nanobody; also called Nb 730003; not shown: C-terminal FLAG3 and HIS6 tag) VHH: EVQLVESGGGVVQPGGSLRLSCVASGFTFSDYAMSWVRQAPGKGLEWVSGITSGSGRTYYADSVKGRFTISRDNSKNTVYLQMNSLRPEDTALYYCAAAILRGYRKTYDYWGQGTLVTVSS ?
Completion: 2.82

Prompt: Could you tell me which ELISA signal relative to background is on file for Nb 701B09 (VHH, monovalent Nanobody; also called Nb 701609; not shown: C-terminal FLAG3 and HIS6 tag) VHH: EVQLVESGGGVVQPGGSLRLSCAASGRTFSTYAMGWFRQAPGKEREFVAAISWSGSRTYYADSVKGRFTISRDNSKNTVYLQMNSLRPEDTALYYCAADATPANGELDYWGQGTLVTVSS ?
Completion: 2.16
